# System: TGF-b induced Endothelin-1 production
# PROTOCOL_DESCRIPTION: ET-1 assay: inhibitory effect on TGF-b induced endothelin-1 production
# Format: cell-based
# PROTOCOL_CONDITIONS: Homo sapiens, Fibroblast; fibroblasts, stimulant (TGFb, serum, LPA etc), ET-1 in media by ELISA, 4-parameter fit
# Experimental: Assay of Inhibitory Effect on TGF-b Induced Endothelin-1 Production Fibroblasts (primary human lung and dermal, HFL-1, 3T3 etc) are seeded in 96-well plates at ˜15000 cells/well and serum starved for 0-48 hours. After media exchange, compounds serially diluted in DMSO are added to the cells. […] ET-1 is quantified using an ELISA kit (R&D Systems). The amount of ET-1 produced in the assay wells are back-calculated using the ELISA standard. […]
Would you kindly list EC50 for each of these molecules?

INSERT INTO assay_data (structure_string, measured_target, observed) VALUES
  ('COc1cc(-n2cc(-c3cnn(C)c3)c(C)cc2=O)cc(OC)c1OC', 'TGF-b induced Endothelin-1 production', '> 200 µM'),
  ('O=c1ccc(C2CCCCC2)cn1-c1ccccc1', 'TGF-b induced Endothelin-1 production', '50 to 200 µM'),
  ('O=c1cc(OCCN2CCS(=O)(=O)CC2)c(-c2ccc(F)cc2)cn1-c1ccc(OC(F)(F)F)cc1', 'TGF-b induced Endothelin-1 production', '> 200 µM'),
  ('Cc1cc(=O)n(-c2ccc(OC(F)(F)F)cc2)cc1-c1ccc2c(c1)OCCO2', 'TGF-b induced Endothelin-1 production', '50 to 200 µM');

For every record below, what is its EC50?
1. Cn1cc(-c2cn(-c3ccc(OC(F)(F)F)cc3)c(=O)c3c2ncn3C)cn1
2. O=c1ccc(-c2cnn(Cc3ccccc3)c2)cn1-c1ccccc1
3. Cn1cc(-c2cn(-c3ccc(OC(F)(F)F)cc3)c(=O)cc2NCc2ccc(F)cc2)cn1
4. O=c1ccc(Br)cn1-c1ccc(OC(F)(F)F)cc1
5. Cn1cc(-c2cn(-c3ccc(OC(F)(F)F)cc3)c(=O)c3ncn(C)c23)cn1

Reply:
1. < 50 µM
2. 50 to 200 µM
3. < 50 µM
4. > 200 µM
5. < 50 µM

----------
# Test system: TGF-b induced Endothelin-1 production
# PROTOCOL_DESCRIPTION: ET-1 assay: inhibitory effect on TGF-b induced endothelin-1 production
# Type: cell-based
# PROTOCOL_CONDITIONS: Homo sapiens, Fibroblast; fibroblasts, stimulant (TGFb, serum, LPA etc), ET-1 in media by ELISA, 4-parameter fit
Would you kindly list EC50 for each of these compounds?

INSERT INTO measurements (structure_string, reported_endpoint, observed) VALUES
  ('CCOc1ccc(-n2cc(-c3cn[nH]c3)c(C)cc2=O)c(C)c1', 'EC50', '50 to 200 µM'),
  ('COC(=O)Nc1cc(=O)n(-c2ccc(OC(F)(F)F)cc2)cc1-c1cnn(C)c1', 'EC50', '> 200 µM'),
  ('Cn1cc(-c2cn(-c3ccc(OC(F)(F)F)cc3)c(=O)cc2NCc2ccc(F)cc2F)cn1', 'EC50', '< 50 µM'),
  ('Cc1cc(=O)n(-c2ccccc2)cc1C', 'EC50', '> 200 µM');

For every record below, what is its EC50?
1. Cc1cc(=O)n(-c2ccc(OC(F)(F)F)cc2)cc1-c1ccc2c(c1)OC(F)(F)O2
2. Cn1cc(-c2c[nH]c(=O)cc2NCc2ccccn2)cn1
3. CCOC(=O)n1cc(-c2ccc(=O)n(-c3ccccc3)c2)cn1
4. CN1CCC(Oc2cc(=O)n(-c3ccc(OC(F)(F)F)cc3)cc2-c2ccc(F)cc2)CC1

Reply:
1. 50 to 200 µM
2. 50 to 200 µM
3. < 50 µM
4. < 50 µM

For every record below, what is its EC50?
1. CC(=O)Nc1cccc(-n2cc(-c3ccc(F)cc3)c(Oc3ccccc3)cc2=O)c1
2. N#Cc1ccc(-n2cc(-c3cn[nH]c3)c3nccnc3c2=O)cc1
3. Cc1nc2c(-c3cnn(Cc4ccccc4)c3)cn(-c3ccc(OC(F)(F)F)cc3)c(=O)c2s1
4. CCOc1ccc(CNc2cc(=O)n(-c3ccc(OCC)cc3C)cc2-c2cnn(C)c2)c(C)c1

Reply:
1: < 50 µM; 2: > 200 µM; 3: < 50 µM; 4: < 50 µM

For every record below, what is its EC50?
1. Cc1ccccc1-n1cc(-c2cnn(C)c2)ccc1=O
2. O=C1COCCN1CCOc1cc(=O)n(-c2ccc(OC(F)(F)F)cc2)cc1-c1ccc(F)cc1
3. CCC(=O)Nc1cc(=O)n(-c2ccc(OC(F)(F)F)cc2)cc1-c1ccc(F)cc1
4. Cc1cc(=O)n(-c2ccc(OC(F)(F)F)cc2)cc1-c1ccc2c(c1)OCC(=O)N2C

Reply:
> 200 µM
50 to 200 µM
> 200 µM
< 50 µM

For every record below, what is its EC50?
1. CCOc1ccc(-n2cc(-c3cnn(C)c3)c3c(c2=O)CCCC3)c(C)c1
2. Cc1cc(=O)n(-c2cccc3c2OCCO3)cc1-c1cnn(C)c1

Reply:
1. < 50 µM
2. 50 to 200 µM

----------
# System: TGF-b induced Endothelin-1 production
# PROTOCOL_DESCRIPTION: ET-1 assay: inhibitory effect on TGF-b induced endothelin-1 production
# Assay type: cell-based
# PROTOCOL_CONDITIONS: Homo sapiens, Fibroblast; fibroblasts, stimulant (TGFb, serum, LPA etc), ET-1 in media by ELISA, 4-parameter fit
REPORTED_ENDPOINT: EC50

INSERT INTO assay_data (structure_string, observed) VALUES
  ('Cc1cc(=O)n(-c2ccc(OC(F)(F)F)cc2)cc1-c1ccnnc1', '50 to 200 µM'),
  ('CCOc1ccc(-c2c(-c3ccc(F)cc3)c(=O)c2=O)c(C)c1', '< 50 µM'),
  ('CC(=O)Nc1cccc(-n2cc(-c3ccccc3)c(C)cc2=O)c1', '> 200 µM'),
  ('COc1ccc(-n2cc(-c3cccc(Cl)c3)ccc2=O)cc1', '< 50 µM'),
  ('O=C(Nc1cc(=O)n(-c2ccc(OC(F)(F)F)cc2)cc1-c1ccc(F)cc1)OCc1ccccc1', '> 200 µM'),
  ('O=c1c2c(ccn2Cc2ccccc2)c(-c2ccc(F)cc2)cn1-c1ccc(OC(F)(F)F)cc1', '> 200 µM'),
  ('O=c1c2c(c(-c3cccc(F)c3)cn1-c1ccc(OC(F)(F)F)cc1)CCCC2', '< 50 µM');

Consider now this further compound.
Ask: Enter reported EC50 observed with TGF-b induced Endothelin-1 production for `O=c1c2nccnc2c(-c2cnn(CCO)c2)cn1-c1ccc(OC(F)(F)F)cc1`
Reply: 50 to 200 µM

----------
Would you kindly list pEC50 for each of these compounds?
# System: TGF-b induced Endothelin-1 production
# PROTOCOL_DESCRIPTION: ET-1 assay: inhibitory effect on TGF-b induced endothelin-1 production
# Format: cell-based
# PROTOCOL_CONDITIONS: Homo sapiens, Fibroblast; fibroblasts, stimulant (TGFb, serum, LPA etc), ET-1 in media by ELISA, 4-parameter fit
pEC50: −log10 of the molar value.

Check out these entries, answers already filled in.
INSERT INTO measurements (structure_string, measured_target, observed) VALUES
  ('Cn1cc(-c2cc(=O)n(-c3ccc(OC(F)(F)F)cc3)cc2-c2cnn(C)c2)cn1', 'TGF-b induced Endothelin-1 production', '3.70 to 4.30'),
  ('CCOc1ccc(-n2cc(-c3cnn(C)c3)c(OCCOC)cc2=O)c(C)c1', 'TGF-b induced Endothelin-1 production', '> 4.30'),
  ('Cc1cc(=O)n(-c2ccc(OC(F)(F)F)cc2)cc1-c1ccc2ncsc2c1', 'TGF-b induced Endothelin-1 production', '3.70 to 4.30');

Ask: I would be grateful if you could share the reported pEC50 for `Cc1nc2c(=O)n(-c3ccc(OC(F)(F)F)cc3)cc(-c3cnn(C)c3)c2o1` .
Reply: > 4.30

----------
# System: TGF-b induced Endothelin-1 production
# PROTOCOL_DESCRIPTION: ET-1 assay: inhibitory effect on TGF-b induced endothelin-1 production
# Format: cell-based
# PROTOCOL_CONDITIONS: Homo sapiens, Fibroblast; fibroblasts, stimulant (TGFb, serum, LPA etc), ET-1 in media by ELISA, 4-parameter fit
Would you kindly list EC50 for each of these compounds?

Check out these entries, answers already filled in.
INSERT INTO assay_data (structure_string, observed) VALUES
  ('Cn1cc(-c2cn(-c3cccc(NC(N)=O)c3)c(=O)cc2Oc2ccccc2)cn1', '< 50 µM'),
  ('Cn1cc(-c2cn(-c3ccc(OC(F)(F)F)cc3)c(=O)cc2NCc2ncccn2)cn1', '> 200 µM'),
  ('Nc1cc(=O)n(-c2ccc(OC(F)(F)F)cc2)cc1-c1ccc(F)cc1', '50 to 200 µM'),
  ('Cn1cc(-c2cn(-c3ccc(OC(F)(F)F)cc3)c(=O)c3ccc(C(F)(F)F)nc23)cn1', '< 50 µM'),
  ('CCn1cc2c(-c3cnn(C)c3)cn(-c3ccc(OC(F)(F)F)cc3)c(=O)c2n1', '< 50 µM'),
  ('Cn1cc(-c2cn(-c3ccc(OC(F)(F)F)cc3)c(=O)c3c2CCCC3)cn1', '< 50 µM'),
  ('Cn1ccc2c(-c3cn[nH]c3)cn(-c3ccc(C#N)cc3)c(=O)c21', '< 50 µM'),
  ('CCn1nnc2c(-c3ccc(F)cc3)cn(-c3ccc(OC(F)(F)F)cc3)c(=O)c21', '< 50 µM');

For every record below, what is its EC50?
1. CCn1ccc2c(-c3ccc(F)cc3)cn(-c3ccc(OC(F)(F)F)cc3)c(=O)c21
2. Cn1ccc2c(-c3cn[nH]c3)cn(-c3ccc(OC(F)(F)F)cc3)c(=O)c21
3. CCCNC(=O)Nc1cc(=O)n(-c2ccc(OC(F)(F)F)cc2)cc1-c1ccc(F)cc1
4. COCCOc1ccc(-n2cc(-c3ccc(F)cc3)c(C)cc2=O)cc1
5. Cc1cc(-c2ccc(F)cc2)cn(-c2ccc(OC(F)(F)F)cc2)c1=O
6. CCOc1ccc(-n2cc(Br)ccc2=O)c(C)c1

Reply:
< 50 µM
< 50 µM
> 200 µM
50 to 200 µM
50 to 200 µM
> 200 µM

For every record below, what is its EC50?
1. O=c1c2[nH]cnc2c(-c2cn[nH]c2)cn1-c1ccc(OC(F)(F)F)cc1
2. Cc1cc(=O)n(-c2ccc(OC(F)(F)F)cc2)cc1-c1ccccc1
3. O=c1c2ccc(C(F)(F)F)nc2c(-c2ccc(F)cc2)cn1-c1ccc(OC(F)(F)F)cc1

Reply:
["< 50 µM", "< 50 µM", "> 200 µM"]
